The entries below are paired with their reported GI50.
- Test system: SN12C
- assay details: NCI tumour cell line growth inhibition, 48 h
Calls of active or inactive are those of the source. Cut-off read from the data, not from the text of the source: active = GI50 up to about 1.1 µM and inactive = higher.

Problem: GI50 for "COc1ccc(/C=C2\C(=O)N(C)C(=O)c3cc(OC)c(OC)cc32)cc1OC" ?
Solution: 32.8 µM (inactive)

Problem: GI50 for "C#CC[N+](C)(CC#C)CC#C" ?
Solution: > 100 µM (inactive)

Problem: GI50 for "CC(C)(Oc1ccc2c(=O)cc(-c3ccccc3)oc2c1)C(=O)N1CCN(c2ccccc2)CC1" ?
Solution: 5.74 µM (inactive)

Problem: GI50 for C1CSCCSCCCS[C@@H]2CCCCC2SC1 (stereo partly specified) ?
Solution: 72.4 µM (inactive)

Problem: GI50 for "Cc1ccc(-c2c(-c3ccccc3)[nH]c(C)c2C(=O)ONC(=O)c2ccccc2)cc1" ?
Solution: 2.53 µM (inactive)

Problem: GI50 for O=C1CCCC1C(O)(C(F)(F)Cl)C(F)(F)Cl (stereo unspecified) ?
Solution: > 10 µM (inactive)

Problem: GI50 for CCCCCC(C)C[C@H]1CO[C@H](c2ccc[nH]2)N[C@H]1C(=O)OC (stereo partly specified) ?
Solution: > 100 µM (inactive)

Problem: GI50 for "O=C(O)/C(O)=C1/C=C(c2ccccc2)c2ccccc21" ?
Solution: 23.8 µM (inactive)

Problem: GI50 for N#CC1(C#N)C(c2ccccc2)NC23CCCCC2C1(C#N)C(=O)N3 (stereo unspecified) ?
Solution: > 100 µM (inactive)

Problem: GI50 for "c1ccc(CN2CCC(=NN3CCCCC3)CC2)cc1" ?
Solution: > 100 µM (inactive)

Problem: GI50 for CN1C[C@@H]2CCCN2P1Oc1cccc2cccnc12 (stereo partly specified) ?
Solution: 22.9 µM (inactive)

----------
- Tested on: SR
- assay details: NCI tumour cell line growth inhibition, 48 h
Activity calls are given as the source filed them. Rule as the data show it: active = GI50 up to about 1.1 µM and inactive = higher.
Respond only with the outcome that fits, drawn from t (active), f (inactive)

Worked cases, answers included:
{"molecule": "O=[N+]([O-])c1ccc(Cl)cc1C1ON=C(c2ccccc2)N1C12CC3CC(CC(C3)C1)C2 (stereo not drawn)", "tested system": "SR", "discrete label": "f"}
{"molecule": "COc1ccc(C(=O)C(c2ccc(OC)cc2)C2(O)C(=O)Nc3ccc([N+](=O)[O-])cc32)cc1 (stereo not drawn)", "tested system": "SR", "discrete label": "f"}
{"molecule": "COc1ccc(/C=C2\\C(=O)N(C)C(=O)c3cc(OC)c(OC)cc32)cc1OC", "tested system": "SR", "discrete label": "f"}
{"molecule": "CN(Cc1ccccc1)c1nc(=[N+](C)C)ss1", "tested system": "SR", "discrete label": "f"}
{"molecule": "O=C1CCCCC/C1=C\\c1cccc([N+](=O)[O-])c1", "tested system": "SR", "discrete label": "f"}

Problem: Call for entry "COC(=O)/C=C1\C(=O)Nc2ccc(Br)cc21" :
Solution: t

Problem: Call for entry "Cn1c2ccccc2n2c3ncccc3c(=S)c(C#N)c12" :
Solution: f

Problem: Call for entry NC(CCc1nc(-c2cccc([N+](=O)[O-])c2)cs1)C(=O)O (stereo not drawn) :
Solution: f

----------
- System: IGROV-1
- assay details: NCI tumour cell line growth inhibition, 48 h
Calls of active or inactive are those of the source. No stated cut-off is given here; in the data, active = GI50 up to about 1.1 µM and inactive = higher.
Respond only with the outcome that fits, drawn from yes (1) = active, no (0) = inactive

Worked cases, answers included:
{"molecule": "c1ccc(COc2cccc3ccc[n+](Cc4ccccc4)c23)cc1", "tested system": "IGROV-1", "discrete label": "no (0)"}
{"molecule": "C[C@]12CC[C@H]3[C@@H](CC=C4C[C@@H](N5CCCC5)CC[C@@]43C)[C@@H]1C/C(=C\\c1ccc([N+](=O)[O-])cc1)[C@@H]2O", "tested system": "IGROV-1", "discrete label": "no (0)"}
{"molecule": "CCC(=O)OCc1ccc2oc(=O)c(C(=O)Oc3cncc(Cl)c3)cc2c1", "tested system": "IGROV-1", "discrete label": "no (0)"}
{"molecule": "COc1ccc(C(=O)C(c2ccc(OC)cc2)C2(O)C(=O)Nc3ccc([N+](=O)[O-])cc32)cc1 (stereo unspecified)", "tested system": "IGROV-1", "discrete label": "no (0)"}
{"molecule": "O=C(O)c1cccc2cccc(-c3cccc4cccc(C(=O)O)c34)c12", "tested system": "IGROV-1", "discrete label": "no (0)"}
{"molecule": "O=[N+]([O-])c1ccc(Cl)cc1C1ON=C(c2ccccc2)N1C12CC3CC(CC(C3)C1)C2 (stereo unspecified)", "tested system": "IGROV-1", "discrete label": "no (0)"}

Okay, now this molecule:
Problem: Call for entry "Cc1sc2nc(-c3ccc(Cl)c([N+](=O)[O-])c3)c(/C=N/NC(=N)N)n2c1C" :
Solution: yes (1)
